# Test system: CAL-51
# measurement-conditions: 72 h
observable: EC50, CellTiter-Glo (nM)
Field format: number, assumed nM, no unit text.

Take a look at these entries with their results.
compound	observable	numeric-readout
COc1cc2c(NC3CCN(C(C)C)CC3)nc(C3CCCCC3)nc2cc1OCCCN1CCCC1 [UNC0638]	EC50, CellTiter-Glo	1660
COc1cc([C@@H]2c3cc4c(cc3[C@@H](O[C@@H]3O[C@@H]5CO[C@@H](c6cccs6)O[C@H]5[C@H](O)[C@H]3O)[C@H]3COC(=O)[C@H]23)OCO4)cc(OC)c1O [Teniposide]	EC50, CellTiter-Glo	666
C=CC(=O)N1CCC[C@@H](n2nc(-c3ccc(Oc4ccccc4)cc3)c3c(N)ncnc32)C1 [Ibrutinib]	EC50, CellTiter-Glo	415

Give the measured EC50, CellTiter-Glo of C=CC(=O)Nc1cc2c(Nc3ccc(F)c(Cl)c3)ncnc2cc1OCCCN1CCOCC1 [Canertinib] .
573

Give the measured EC50, CellTiter-Glo of CC[C@@H]1C(=O)N(C)c2cnc(Nc3ccc(C(=O)NC4CCN(C)CC4)cc3OC)nc2N1C1CCCC1 [BI 2536] .
10.9

###

Parameter: normalised viability. Scope: all listed entries.
# Tested on: MDA-MB-468
# procedure-details: normalised viability (% of control), CellTiter-Blue; higher = more viable cells (100 = DMSO, 0 = benzethonium chloride kill control)
# measurement-conditions: 1 nM; incubation time: 72 h
Field format: number, assumed %, no unit text.

Take a look at these entries with their results.
> print(dat)
                                 cpd.smiles            observable  numeric.readout
1  C=CC(=O)Nc1cc2c(Nc3ccc(F)c(Cl)c3)ncnc2cc1OCCCN1CCOCC1  normalised viability              110
2  Cc1ccc(-c2cc(C(F)(F)F)nn2-c2ccc(S(N)(=O)=O)cc2)cc1  normalised viability              102
3  O=C(O)C(=O)O.[NH-][C@@H]1CCCC[C@H]1[NH-].[Pt+2]  normalised viability              109
4  CC[C@H](Nc1ncnc2[nH]cnc12)c1nc2cccc(F)c2c(=O)n1-c1ccccc1  normalised viability              100
5      N#Cc1ccc(C(c2ccc(C#N)cc2)n2cncn2)cc1  normalised viability             90.6

Now let's try a different one.
Give the measured normalised viability of O=C(Cc1ccc(-c2ccc(OCCN3CCOCC3)cc2)cn1)NCc1ccccc1 .
113

###

# Test system: BT-549
# procedure-details: normalised response (% of control), CellTox Green; higher = less cell death (100 = DMSO, 0 = benzethonium chloride kill control)
# measurement-conditions: incubation time: 72 h
Parameter: normalised response. Scope: all listed entries.
Field format: number, assumed %, no unit text.

Take a look at these entries with their results.
> print(dat)
                                   compound           observable  numeric.readout
1  CC[C@H](C)C(=O)O[C@H]1C[C@H](O)C=C2C=C[C@H](C)[C@H](CC[C@@H](O)C[C@@H](O)CC(=O)O)[C@H]21 [Pravastatin] (10000 nM)  normalised response             90.3
2  O=C(/C=C/c1cccnc1)NCCCCC1CCN(C(=O)c2ccccc2)CC1 [Daporinad] (1000 nM)  normalised response             91.1
3  N#Cc1ccc(C(c2ccc(C#N)cc2)n2cncn2)cc1 [Letrozole] (1000 nM)  normalised response             89.6
4  Nc1nc2[nH]cc(CCc3ccc(C(=O)N[C@@H](CCC(=O)O)C(=O)O)cc3)c2c(=O)[nH]1 [Pemetrexed] (10000 nM)  normalised response             98.9

Give the measured normalised response of CCCS(=O)(=O)Nc1ccc(F)c(C(=O)c2c[nH]c3ncc(-c4ccc(Cl)cc4)cc23)c1F [Vemurafenib] (1000 nM) .
116

Give the measured normalised response of C=CC(=O)N1CCC[C@@H](n2nc(-c3ccc(Oc4ccccc4)cc3)c3c(N)ncnc32)C1 [Ibrutinib] (1000 nM) .
92.3

Give the measured normalised response of CC1=C(/C=C/C(C)=C/C=C/C(C)=C/C(=O)O)C(C)(C)CCC1 [Tretinoin] (100 nM) .
115

###

# Tested on: CAL-148
# procedure-details: drug sensitivity score (DSS), CellTiter-Blue viability (DSS (AUC-based score)); higher = stronger viability inhibition; extreme values may be limits of the assay
# measurement-conditions: incubation time: 72 h
observable: drug sensitivity score
// return a plain number; no unit text

Take a look at these entries with their results.
compound	numeric-readout
C=CC(=O)N1CCC[C@@H](n2nc(-c3ccc(Oc4ccccc4)cc3)c3c(N)ncnc32)C1	0
CCCS(=O)(=O)Nc1ccc(F)c(C(=O)c2c[nH]c3ncc(-c4ccc(Cl)cc4)cc23)c1F	0
Oc1ncc(N(CCCl)CCCl)c(O)n1	0

Now let's try a different one.
Give the measured drug sensitivity score of COc1cc([C@@H]2c3cc4c(cc3[C@@H](O[C@@H]3O[C@@H]5CO[C@@H](c6cccs6)O[C@H]5[C@H](O)[C@H]3O)[C@H]3COC(=O)[C@H]23)OCO4)cc(OC)c1O [Teniposide] .
18.5

###

# Test system: CAL-85-1
# procedure-details: normalised response (% of control), CellTox Green; higher = less cell death (100 = DMSO, 0 = benzethonium chloride kill control)
# measurement-conditions: incubation time: 72 h
Parameter: normalised response. Scope: all listed entries.

> print(dat)
                                   compound  system.name  result
1  COc1cc2nccc(Oc3ccc(NC(=O)Nc4cc(C)on4)c(Cl)c3)c2cc1OC [Tivozanib] (100 nM)     CAL-85-1   98.6%

Give the measured normalised response of C=CC(=O)Nc1cc2c(Nc3ccc(F)c(Cl)c3)ncnc2cc1OCCCN1CCOCC1 [Canertinib] (10000 nM) .
-11%

Give the measured normalised response of CCN(CC)CCCC(C)Nc1c2ccc(Cl)cc2nc2ccc(OC)cc12 (centres undefined) [Mepacrine] (500 nM) .
104%

Give the measured normalised response of Oc1ncc(N(CCCl)CCCl)c(O)n1 [Uracil mustard] (100 nM) .
114%

Give the measured normalised response of CC(=O)Nc1cccc(-n2c(=O)n(C3CC3)c(=O)c3c(Nc4ccc(I)cc4F)n(C)c(=O)c(C)c32)c1 [Trametinib] (2.5 nM) .
86.5%

Give the measured normalised response of COc1cc2c(NC3CCN(C(C)C)CC3)nc(C3CCCCC3)nc2cc1OCCCN1CCCC1 [UNC0638] (1000 nM) .
94.4%

###

# Test system: BT-549
# procedure-details: normalised viability (% of control), CellTiter-Blue; higher = more viable cells (about 100 = DMSO control)
# measurement-conditions: 100 nM; incubation time: 72 h
observable: normalised viability (%)
Field format: number, assumed %, no unit text.

Take a look at these entries with their results.
> print(dat)
                                   molecule  numeric.readout
1  Nc1nc2[nH]cc(CCc3ccc(C(=O)N[C@@H](CCC(=O)O)C(=O)O)cc3)c2c(=O)[nH]1 [Pemetrexed]             87.8
2  O=C(O)C(=O)O.[NH-][C@@H]1CCCC[C@H]1[NH-].[Pt+2] [Oxaliplatin]             89.1

Now let's try a different one.
Give the measured normalised viability of C=CC(=O)Nc1cc2c(Nc3ccc(F)c(Cl)c3)ncnc2cc1OCCCN1CCOCC1 [Canertinib] .
114

###

Parameter: normalised viability. Scope: all listed entries.
# Tested on: MDA-MB-436
# procedure-details: normalised viability (% of control), CellTiter-Blue; higher = more viable cells (about 100 = DMSO control)
# measurement-conditions: 10 nM; incubation time: 72 h
Field format: number, assumed %, no unit text.

Take a look at these entries with their results.
compound	system-name	observable	numeric-readout
CCCS(=O)(=O)Nc1ccc(F)c(C(=O)c2c[nH]c3ncc(-c4ccc(Cl)cc4)cc23)c1F	MDA-MB-436	normalised viability	104
O=C(Cc1ccc(-c2ccc(OCCN3CCOCC3)cc2)cn1)NCc1ccccc1	MDA-MB-436	normalised viability	98.3
COc1cc2nccc(Oc3ccc(NC(=O)Nc4cc(C)on4)c(Cl)c3)c2cc1OC	MDA-MB-436	normalised viability	101

Now let's try a different one.
Give the measured normalised viability of COc1cc([C@@H]2c3cc4c(cc3[C@@H](O[C@@H]3O[C@@H]5CO[C@@H](c6cccs6)O[C@H]5[C@H](O)[C@H]3O)[C@H]3COC(=O)[C@H]23)OCO4)cc(OC)c1O [Teniposide] .
92.1

All figures here come from the supplement of paper PMC4862054.
